- test.target: T1, biotinylated goat anti-human kappa light chain
- T1 construct: Positive control of the ELISA
- test.details: ELISA; positive control; note: test concentration or dose not given here
assay.readout: optical density (OD)
Quick note: give the figure in OD, leave out the unit.

Look up optical density for this binder: 376_C02 (antibody, V domains shown, VH/VL only) VH: EVQLLESGGGLVQPGGSLRLSCAASGFTFDSYGMNWVRQAPGKGLEWVSGINYNSGYTSYADSVKGRFTISRDNSKNTLYLQMNSLRAEDTAVYYCARSANWHDTALDYWGQGTLVTVSS VL: DIQMTQSPSSLSASVGDRVTITCRASQSIVSYLNWYQQKPGKAPKLVIYAVTSRASGVPSRFSGSGSGTDFTLTISSLQPEDFATYYCQQSYDSPLTFGGGTKVEIK
3.44

Please look up its optical density: 365_A07 (antibody, V domains shown, VH/VL only) VH: EVQLLESGGGLVQPGGSLRLSCAASGFTFSSYGMNWVRQAPGKGLEWVAGINYNSGYKGYADSVKGRFTISRDNSKNTLYLQMNSLRAEDTAVYYCARSATWHDTHLDYWGQGTLVTVSS VL: DIQMTQSPSSLSASVGDRVTITCRASQSIVSYLNWYQQKPGKAPKLLIYAATSRASGVPSRFSGSGSGTDFTLTISSLQPEDFATYYCQQSYNLPLTFGGGTKVEIK
3.41

Cited source: patent US20210380703A1
